Cited source for all entries: the kinase profiling compilation of Christmann-Franck et al. (2016)

# TESTED_TARGET: ROCK1 (human)
# RUN_DESCRIPTION: radiometric filter-binding kinase assay, Kinase HotSpot
# DETAILS: compound 0.5 µM; ATP 10 µM
VALUE_KIND: residual activity (%)

{"SMI": "COc1cc2c(N3CCN(C(=O)Nc4ccc(OC(C)C)cc4)CC3)ncnc2cc1OCCCN1CCCCC1", "EXPERIMENTAL_RESULT": 102}
{"SMI": "Cn1cc(/C=C2\\C(=O)Nc3ccc(S(N)(=O)=O)cc32)c2ccccc21", "EXPERIMENTAL_RESULT": 63.8}
{"SMI": "COc1cc2ncnc(Nc3ccc(O)c(Br)c3)c2cc1OC", "EXPERIMENTAL_RESULT": 96.1}
{"SMI": "O=c1c(-c2ccc(F)cc2)c(-c2ccncc2)[nH]n1-c1ccc(Cl)cc1", "EXPERIMENTAL_RESULT": 109}
{"SMI": "N/C(=N\\N=C/c1ccc(-c2cccc([N+](=O)[O-])c2)o1)N[N+](=O)[O-]", "EXPERIMENTAL_RESULT": 91.7}
{"SMI": "N#C/C(=C1/Nc2ccccc2S1)c1ccnc(NCCc2cccnc2)n1", "EXPERIMENTAL_RESULT": 93.2}
{"SMI": "Nc1ncnc2c1cnn2-c1ccccc1", "EXPERIMENTAL_RESULT": 93.8}
{"SMI": "O=c1cc(N2CCOCC2)oc2c(-c3ccccc3)cccc12", "EXPERIMENTAL_RESULT": 104}
{"SMI": "N#Cc1c(NC(=O)c2cccc3ccccc23)sc2c1CCCC2", "EXPERIMENTAL_RESULT": 96.3}
{"SMI": "FC(F)(F)c1ccc(/C=C/c2nc(COc3ccc(CCCCn4ccnn4)cc3)co2)cc1", "EXPERIMENTAL_RESULT": 100}
